From: the RNAGym collection of RNA variant scans (doi:10.1101/gad.245936.114)

B1: tRNA (parent)
chain: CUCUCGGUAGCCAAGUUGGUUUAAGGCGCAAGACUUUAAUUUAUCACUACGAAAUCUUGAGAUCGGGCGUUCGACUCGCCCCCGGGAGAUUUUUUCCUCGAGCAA

variants of: B1; assay: nonsense suppression (GFP-seq) (ratio to wild type); higher = more function; SUP4oc tRNA, yeast GFP reporter sort-seq
Fewer inactive variants are shown than the library holds.
Would you please tag the item true when its nonsense suppression is 0.2 or above, and false when it is below?

Enquiry: Determine whether measured nonsense suppression meets or exceeds 0.2 for G28A U35G G65U G73A C80U
Return: false

Enquiry: Determine whether measured nonsense suppression meets or exceeds 0.2 for G32U U70C
Return: false
